Test system: A549
assayExplanation: Antiproliferative activity against human A549 cells after 72 hrs by MTT assay
Assay type: functional, cell-based
assayContext: A549, 72 h
Please go through the items and note down their pIC50.
Answers are plain numbers, as −log10 of the molar value.

Examples from the recorded data:
# molecule, pIC50
records = [
    ("C#CCn1c(=O)c(I)cn(Cc2cn(-c3ccc(Cl)cc3)nn2)c1=O", 5.33),
    ("CCCCCCC#Cc1c(CCCCCC)oc2nc(=O)n(Cc3cn(Cc4ccccc4)nn3)cc12", 4.66),
]

For every listed record, write down its pIC50.
1. O=c1[nH]c(=O)n(Cc2cn(-c3ccc(Cl)cc3)nn2)cc1I
2. O=c1nc2oc(C3CC3)c(C#CC3CC3)c2cn1Cc1cn(-c2ccccc2F)nn1
3. O=c1nc2oc(CCCCl)cc2cn1Cc1cn(-c2ccc(F)cc2)nn1
4. O=c1nc2oc(C3CC3)c(C#CC3CC3)c2cn1Cc1cn(Cc2ccccc2)nn1
5. O=c1[nH]c(=O)n(Cc2cn(-c3ccc(F)cc3)nn2)cc1I
6. O=c1nc2oc(C3CC3)cc2cn1Cc1cn(Cc2ccccc2)nn1
7. O=c1nc2oc(CCCCl)c(C#CCCCCl)c2cn1Cc1cn(-c2ccc(F)cc2)nn1

output:
1: 4.30; 2: 4.42; 3: 4.17; 4: 5.32; 5: 4.10; 6: 4.35; 7: 4.40

# map each compound to its pIC50
1. O=c1nc2oc(CCCCl)cc2cn1Cc1cn(-c2ccc(Cl)cc2)nn1
2. CCCCCc1ccc(C#Cc2c(-c3ccc(CCCCC)cc3)oc3nc(=O)n(Cc4cn(-c5ccccc5F)nn4)cc23)cc1
3. O=c1nc2oc(CCCCl)c(C#CCCCCl)c2cn1Cc1cn(Cc2ccccc2)nn1
4. O=c1[nH]c(=O)n(Cc2cn(-c3ccc(Cl)cc3)nn2)cc1Br
5. O=c1c(Br)cn(Cc2cn(-c3ccc(Cl)cc3)nn2)c(=O)n1Cc1cn(-c2ccc(Cl)cc2)nn1
6. O=c1[nH]c(=O)n(Cc2cn(-c3ccc(F)cc3)nn2)cc1Br
7. O=c1c(I)cn(Cc2cn(-c3ccc(Cl)cc3)nn2)c(=O)n1Cc1cn(-c2ccc(Cl)cc2)nn1
8. O=c1nc2oc(CCCCl)cc2cn1Cc1cn(-c2ccccc2F)nn1

output:
[4.28, 4.41, 4.57, 4.39, 5.13, 4.19, 4.15, 4.16]

# return pIC50 for each item in the list
1. CCCCCCc1cc2cn(Cc3cn(Cc4ccccc4)nn3)c(=O)nc2o1
2. O=c1c(I)cn(Cc2cn(-c3ccc(F)cc3)nn2)c(=O)n1Cc1cn(-c2ccc(F)cc2)nn1
3. O=c1c(I)cn(Cc2cn(Cc3ccccc3)nn2)c(=O)n1Cc1cn(Cc2ccccc2)nn1
4. O=c1c(Br)cn(Cc2cn(-c3ccccc3F)nn2)c(=O)n1Cc1cn(-c2ccccc2F)nn1
5. O=c1nc2oc(C3CC3)c(C#CC3CC3)c2cn1Cc1cn(-c2ccc(Cl)cc2)nn1

output:
[4.29, 4.10, 4.38, 5.27, 4.41]

Field: pIC50. Fill in for each record below.
1. C#CCn1c(=O)c(I)cn(Cc2cn(-c3ccc(F)cc3)nn2)c1=O
2. O=c1[nH]c(=O)n(Cc2cn(-c3cc(Cl)cc(Cl)c3)nn2)cc1Br

output:
1. 5.51
2. 4.09
